# Substrate: N[C@@H](CC(=O)O)C(=O)O
# Run Description: purified protein
# Assay Context: co-substrate α-ketoglutarate (fixed, 0.1563–1.25 mM range), 16 µM PLP, 5 mM NAD+, 100 mM potassium phosphate pH 8, 37 °C
Assay Readout: log10 Km (log10 of the value in mM)
All values: log10 Km [mM].

[ask] log10 Km for E. coli aspartate aminotransferase (AAT) (Escherichia coli K-12; K37Y/N285S/N64L/T104S/T43I/V35L) (protein, full-length, N-terminal His-tag, expressed in E. coli BL21-Gold (DE3), Ni-NTA purified; 90 kDa homodimer, PLP-dependent) MFENITAAPADPILGLADLFRADERPGKINLGIGLYYDETGKIPVLTSVKKAEQYLLENETTKLYLGIDGIPEFGRCTQELLFGKGSALINDKRARTAQTPGGSGALRVAADFLAKNTSVKRVWVSNPSWPNHKSVFNSAGLEVREYAYYDAENHTLDFDALINSLNEAQAGDVVLFHGCCHNPTGIDPTLEQWQTLAQLSVEKGWLPLFDFAYQGFARGLEEDAEGLRAFAAMHKELIVASSYSKNFGLYNERVGACTLVAADSETVDRAFSQMKAAIRANYSSPPAHGASVVATILSNDALRAIWEQELTDMRQRIQRMRQLFVNTLQEKGANRDFSFIIKQNGMFSFSGLTKEQVLRLREEFGVYAVASGRVNVAGMTPDNMAPLCEAIVAVL ?
[reply] -1.23

Proceed to the following item.
[ask] Please look up its log10 Km: E. coli aspartate aminotransferase (AAT) (Escherichia coli K-12; K37F/N64Y/T43I) (protein, full-length, N-terminal His-tag, expressed in E. coli BL21-Gold (DE3), Ni-NTA purified; 90 kDa homodimer, PLP-dependent) MFENITAAPADPILGLADLFRADERPGKINLGIGVYFDETGKIPVLTSVKKAEQYLLENETTKYYLGIDGIPEFGRCTQELLFGKGSALINDKRARTAQTPGGTGALRVAADFLAKNTSVKRVWVSNPSWPNHKSVFNSAGLEVREYAYYDAENHTLDFDALINSLNEAQAGDVVLFHGCCHNPTGIDPTLEQWQTLAQLSVEKGWLPLFDFAYQGFARGLEEDAEGLRAFAAMHKELIVASSYSKNFGLYNERVGACTLVAADSETVDRAFSQMKAAIRANYSNPPAHGASVVATILSNDALRAIWEQELTDMRQRIQRMRQLFVNTLQEKGANRDFSFIIKQNGMFSFSGLTKEQVLRLREEFGVYAVASGRVNVAGMTPDNMAPLCEAIVAVL
[reply] -0.92
